tested on: human LPA4 (Homo sapiens, UniProt Q99677)
Sequence (Q99677 whole entry): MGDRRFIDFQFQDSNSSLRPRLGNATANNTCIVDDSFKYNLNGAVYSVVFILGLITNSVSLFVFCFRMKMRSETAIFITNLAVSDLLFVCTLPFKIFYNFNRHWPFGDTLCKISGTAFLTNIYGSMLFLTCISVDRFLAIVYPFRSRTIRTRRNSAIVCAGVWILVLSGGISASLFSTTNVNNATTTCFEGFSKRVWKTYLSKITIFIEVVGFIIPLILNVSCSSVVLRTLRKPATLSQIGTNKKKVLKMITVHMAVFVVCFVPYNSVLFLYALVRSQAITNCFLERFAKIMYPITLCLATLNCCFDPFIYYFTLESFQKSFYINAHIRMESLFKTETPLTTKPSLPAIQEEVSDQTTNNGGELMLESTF
assay summary: Ca2+ mobilization assay, LPA4 in CHO cells
test parameters: antagonist mode vs 400 nM LPA
pKi: −log10 of the molar value.
experimental endpoint: pKi

compound: CCCCCCCC/C=C\CCCCCCCC(=O)OC[C@@H](O)CC(Br)P(=O)(O)O (mixture of isomers) [Compound 19a]
numeric value: 5.60
//
compound: CCCCCCCCCCCCCCCC(=O)OC[C@@H](O)CC(Br)P(=O)(O)O (mixture of isomers)
numeric value: 6.78

---

tested on: human LPA2 (Homo sapiens)
Construct: expressed in transfected cells
Sequence (Q9HBW0 whole entry): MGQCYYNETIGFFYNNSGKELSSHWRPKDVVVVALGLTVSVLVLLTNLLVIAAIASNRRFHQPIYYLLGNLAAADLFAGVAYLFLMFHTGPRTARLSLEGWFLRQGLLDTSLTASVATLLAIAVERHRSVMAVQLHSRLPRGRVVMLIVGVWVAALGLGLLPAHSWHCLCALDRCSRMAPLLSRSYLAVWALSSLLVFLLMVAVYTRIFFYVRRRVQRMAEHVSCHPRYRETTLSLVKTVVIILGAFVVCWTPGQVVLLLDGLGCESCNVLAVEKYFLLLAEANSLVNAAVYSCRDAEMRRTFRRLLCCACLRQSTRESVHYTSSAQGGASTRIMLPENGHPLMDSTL
assay summary: Ca2+ mobilization assay, LPA2
Type: cell-based
test parameters: diastereomer study, RH7777 cells; read-out: LPA2 IC50 (Table 2)
Property: IC50; scope: individual molecules

molecule: CCCCCCCCCCCCCCCC(=O)OC[C@@H](O)C[C@H](Br)P(=O)(O)O [Compound 1b]
IC50 / µM: 0.275
//
molecule: CCCCCCCCCCCCCCCC(=O)OC[C@@H](O)C[C@@H](Br)P(=O)(O)O [Compound 1a]
IC50 / µM: 0.288
//
molecule: CCCCCCCCCCCCCCCC(=O)OC[C@@H](O)CC(Br)P(=O)(O)O (mixture of isomers) [Compound 1]
IC50 / µM: 0.468
